B1: SAM and SH3 domain-containing protein 1, residues 630 to 700; numbered along this chain, O94885 (parent)
chain: GRPPQPKSVEDLLDRINLKEHMPTFLFNGYEDLDTFKLLEEEDLDELNIRDPEHRAVLLTAVELLQEYDSN

- Variants of: B1
- PROTOCOL_DESCRIPTION: abundance fitness (aPCA) (normalised: wild type 0, dead -1); higher = more abundant; growth selection in yeast, the domain comes from the species named
- EXPERIMENTAL_SETUP: Homo sapiens
Note to self: class = bucket of abundance fitness, per low bracket = under -0.3, middle bracket = from -0.3 up to -0.1, high bracket = -0.1 and over

{"SEQUENCE_VARIANT": "E42W", "ASSIGNED_CLASS": "low bracket"}
{"SEQUENCE_VARIANT": "Q5K", "ASSIGNED_CLASS": "middle bracket"}
{"SEQUENCE_VARIANT": "T60Q", "ASSIGNED_CLASS": "high bracket"}
{"SEQUENCE_VARIANT": "D32G", "ASSIGNED_CLASS": "low bracket"}
{"SEQUENCE_VARIANT": "K7D", "ASSIGNED_CLASS": "middle bracket"}
{"SEQUENCE_VARIANT": "N71Y", "ASSIGNED_CLASS": "middle bracket"}
{"SEQUENCE_VARIANT": "K7L", "ASSIGNED_CLASS": "low bracket"}
{"SEQUENCE_VARIANT": "S8D", "ASSIGNED_CLASS": "low bracket"}
{"SEQUENCE_VARIANT": "G1Y", "ASSIGNED_CLASS": "high bracket"}
{"SEQUENCE_VARIANT": "D51S", "ASSIGNED_CLASS": "low bracket"}
{"SEQUENCE_VARIANT": "L59H", "ASSIGNED_CLASS": "low bracket"}
{"SEQUENCE_VARIANT": "E31R", "ASSIGNED_CLASS": "high bracket"}
{"SEQUENCE_VARIANT": "A56C", "ASSIGNED_CLASS": "middle bracket"}
{"SEQUENCE_VARIANT": "Y68W", "ASSIGNED_CLASS": "high bracket"}
{"SEQUENCE_VARIANT": "R50N", "ASSIGNED_CLASS": "high bracket"}
{"SEQUENCE_VARIANT": "P3F", "ASSIGNED_CLASS": "high bracket"}
{"SEQUENCE_VARIANT": "K37R", "ASSIGNED_CLASS": "middle bracket"}
{"SEQUENCE_VARIANT": "L39I", "ASSIGNED_CLASS": "high bracket"}
{"SEQUENCE_VARIANT": "N28P", "ASSIGNED_CLASS": "low bracket"}
{"SEQUENCE_VARIANT": "D51T", "ASSIGNED_CLASS": "low bracket"}
{"SEQUENCE_VARIANT": "N17S", "ASSIGNED_CLASS": "middle bracket"}
{"SEQUENCE_VARIANT": "D51E", "ASSIGNED_CLASS": "low bracket"}
